Recorded TGI values for a group of molecules are listed next.
tested on: MALME-3M melanoma; experiment: NCI tumour cell line growth inhibition, 48 h

>  <molecule>
NCC#CCNCCCN1CC1

>  <study.target>
MALME-3M melanoma

>  <TGI>
> 100 µM

$$$$

Prompt line: State recorded TGI with MALME-3M melanoma, entry Cc1cn(C2CC(O)C(Cn3cc(Cn4ncc(=O)[nH]c4=O)nn3)O2)c(=O)[nH]c1=O (centres undefined) , no comment.
Response line: > 100 µM

Prompt line: Answer briefly: TGI recorded on MALME-3M melanoma for CC1(C)CCC2(C(=O)OC3OC(CO)C(O)C(O)C3O)CCC3(C)C(=CCC4C5(C)CCC(OC6OC(CO)C(O)C(O)C6O)C(C)(C)C5CCC43C)C2C1 (centres undefined)
Response line: > 25 µM

Prompt line: Under MALME-3M melanoma: report TGI of CN(c1ccccc1)S(=O)(=O)c1ccccc1[N+](=O)[O-] .
Response line: > 100 µM

Prompt line: Given CCOC(=O)CC(=O)C(=O)NNC1=NCCCN1 , report its TGI on MALME-3M melanoma.
Response line: > 100 µM

Prompt line: Recall the reported TGI of COc1cc(/C=C2\CN(C)C/C(=C\c3cc(OC)c(OC)c(OC)c3)C2=O)cc(OC)c1OC on MALME-3M melanoma and write it down.
Response line: 0.435 µM

Prompt line: Print MALME-3M melanoma TGI for CC1(C)CC[C@]2(C(=O)O)CC[C@]3(C)C(=CC[C@@H]4[C@@]5(C)C[C@H](O)[C@H](O)[C@@](C)(CO)C5=CC[C@]43C)[C@@H]2C1 .
Response line: > 100 µM

Prompt line: Give TGI for this entry on MALME-3M melanoma: c1cc(OCCN2CCCCCC2)ccc1CNc1ccc2nc(CCC3CCCCC3)[nH]c2c1
Response line: 3.1 µM

Prompt line: Specify TGI for N#CC1=C(S)N(C2OC(CO)C(O)C(O)C2O)C(c2ccccc2)=CC1c1ccccc1 (centres undefined) , system MALME-3M melanoma.
Response line: > 100 µM

Data origin, for the record: PubChem BioAssay (NCI)
